Cited source for all entries: PubChem BioAssay AID1963973

Test system: 883617-216-R-J1-PDC tumor spheroids, viability;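 also: spheroids exposed to agents for 7 days before the viability read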
Assay details: Anticancer human tumor 883617-216-R-J1-PDC patient-derived bladder carcinoma cell line growth inhibition [PI3K]
Experimental setup: second compound 3.16 µM; first compound 0.1 µM; stronger effect = lower value; spheroids with HUVEC and MSC
Measured property: viability, T/C (%)
Just the number please, in %, no unit attached.

For orientation, consider the following solved cases.
{"Compound": "C#Cc1c(F)ccc2cc(O)cc(-c3ncc4c(N5CC6CCC(C5)N6)nc(OCC56CCCN5CC(F)C6)nc4c3F)c12 (stereo unspecified) + CC(Nc1ncnc2nc[nH]c12)c1cc2cccc(Cl)c2c(=O)n1-c1ccccc1", "Measured property": "viability, T/C", "Unit abbrev": "%", "Reading": 70.4}
{"Compound": "CC1(C)CCC(CN2CCN(c3ccc(C(=O)NS(=O)(=O)c4ccc(NCC5CCOCC5)c([N+](=O)[O-])c4)c(Oc4cnc5[nH]ccc5c4)c3)CC2)=C(c2ccc(Cl)cc2)C1 + Cc1nc(NC(=O)N2CCCC2C(N)=O)sc1-c1ccnc(C(C)(C)C(F)(F)F)c1", "Measured property": "viability, T/C", "Unit abbrev": "%", "Reading": 14.4}
{"Compound": "CC(C)NCC(C(=O)N1CCN(c2ncnc3c2C(C)CC3O)CC1)c1ccc(Cl)cc1 (stereo unspecified) + CC(Nc1ncnc2nc[nH]c12)c1cc2cccc(Cl)c2c(=O)n1-c1ccccc1", "Measured property": "viability, T/C", "Unit abbrev": "%", "Reading": 53.8}
{"Compound": "CC1(C)CCC(CN2CCN(c3ccc(C(=O)NS(=O)(=O)c4ccc(NCC5CCOCC5)c([N+](=O)[O-])c4)c(Oc4cnc5[nH]ccc5c4)c3)CC2)=C(c2ccc(Cl)cc2)C1 + CC(Nc1ncnc2nc[nH]c12)c1cc2cccc(Cl)c2c(=O)n1-c1ccccc1", "Measured property": "viability, T/C", "Unit abbrev": "%", "Reading": 76}
{"Compound": "C=CC(=O)N1CCN(c2nc(=O)n(-c3c(C)ccnc3C(C)C)c3nc(-c4c(O)cccc4F)c(F)cc23)C(C)C1 (stereo unspecified) + Cc1nc(NC(=O)N2CCCC2C(N)=O)sc1-c1ccnc(C(C)(C)C(F)(F)F)c1", "Measured property": "viability, T/C", "Unit abbrev": "%", "Reading": 6.71}

## Input Value lookup for viability, T/C; key = CNC(=O)c1ccc(N2C(=S)N(c3ccc(C#N)c(C(F)(F)F)c3)C(=O)C2(C)C)cc1F + CC(Nc1ncnc2nc[nH]c12)c1cc2cccc(Cl)c2c(=O)n1-c1ccccc1
## Output 78.5

## Input Can you handle CNC(=O)c1ccc(N2C(=S)N(c3ccc(C#N)c(C(F)(F)F)c3)C(=O)C2(C)C)cc1F + Cc1nc(NC(=O)N2CCCC2C(N)=O)sc1-c1ccnc(C(C)(C)C(F)(F)F)c1 next?
## Output 15.3

## Input // same read-out, input: CCCS(=O)(=O)Nc1ccc(F)c(C(=O)c2c[nH]c3ncc(-c4ccc(Cl)cc4)cc23)c1F + Cc1nc(NC(=O)N2CCCC2C(N)=O)sc1-c1ccnc(C(C)(C)C(F)(F)F)c1
## Output 16.3

## Input Check CCN1CCN(Cc2ccc(Nc3ncc(F)c(-c4cc(F)c5nc(C)n(C(C)C)c5c4)n3)nc2)CC1 + Cc1nc(NC(=O)N2CCCC2C(N)=O)sc1-c1ccnc(C(C)(C)C(F)(F)F)c1 too.
## Output 10.5

## Input Repeat with CC(=O)c1c(C)c2cnc(Nc3ccc(N4CCNCC4)cn3)nc2n(C2CCCC2)c1=O + CC(Nc1ncnc2nc[nH]c12)c1cc2cccc(Cl)c2c(=O)n1-c1ccccc1
## Output 38.1

## Input Next compound: Cn1nccc1Nc1nccc(-c2ccn(C(CO)c3ccc(Cl)c(F)c3)c(=O)c2)n1 (stereo unspecified) + Cc1nc(NC(=O)N2CCCC2C(N)=O)sc1-c1ccnc(C(C)(C)C(F)(F)F)c1
## Output 12.2

## Input Now this one: CC(Cn1ccc(-c2ccc(C#N)c(Cl)c2)n1)NC(=O)c1cc(C(C)O)[nH]n1 (stereo unspecified) + CC(Nc1ncnc2nc[nH]c12)c1cc2cccc(Cl)c2c(=O)n1-c1ccccc1
## Output 70.9
